target_or_test_system: human EHMT2 913-1193 (Homo sapiens, UniProt Q96KQ7)
Construct: recombinant purified human EHMT2 913-1193, Viva; purchased Viva
Sequence (Q96KQ7 913-1193): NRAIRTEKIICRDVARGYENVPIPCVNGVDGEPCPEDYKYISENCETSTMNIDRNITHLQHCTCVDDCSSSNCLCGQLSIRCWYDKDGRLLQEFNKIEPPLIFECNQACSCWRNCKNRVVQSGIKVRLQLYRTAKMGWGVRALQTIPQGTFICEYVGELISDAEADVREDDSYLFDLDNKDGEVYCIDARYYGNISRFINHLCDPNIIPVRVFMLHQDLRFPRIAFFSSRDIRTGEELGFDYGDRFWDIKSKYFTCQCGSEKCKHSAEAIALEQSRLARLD
protocol: EHMT2 enzyme assay on histone peptide substrate (EHMT2 PEP)
Assay type: biochemical
run_conditions: Table III; read-out: EHMT2 PEP (IC50 μM)
value_kind: IC50

Consider the compound shown here: CNc1ccnc(Nc2ccc(OC)c(OCC3CCN(C(C)C)C3)c2)n1 (stereo not drawn) What is its recorded IC50? < 0.1 µM

Reported IC50 for CNc1ccnc(Nc2ccc(OC)c(OC[C@H](O)CN3CCCC3)c2)n1 (single isomer, unassigned) [Compound 376] : what is it? 1 to 10 µM

Value source: patent US20210198277A1
